Tested on: UO-31 renal
procedure-text: NCI tumour cell line growth inhibition, 48 h
measurement-label: TGI

compound: O=[N+]([O-])c1cc(Cl)c2[nH]c3c(Cl)cc([N+](=O)[O-])cc3c2c1
measured-on: UO-31 renal
TGI: 1.38 µM
//
compound: COc1ccc(-n2c(N)c(C#N)[nH]c2=O)cc1
measured-on: UO-31 renal
TGI: > 10 µM
//
compound: O=C(/C=C/C12c3ccccc3C(c3ccccc31)C1C(=O)NC(=O)C12)c1ccc(Cl)cc1Cl (centres undefined)
measured-on: UO-31 renal
TGI: 2.71 µM

Provide reported TGI for each item, in the same order as listed.
1. CCC(O)c1ccc(Br)cc1NC(=O)c1cccc(Cl)c1 (centres undefined)
2. Nc1ccccc1C#C/C=C\C#Cc1ccc(OCCCNC(=O)c2cc3ccccc3[nH]2)cc1

Result:
1: > 100 µM; 2: > 100 µM

Provide reported TGI for each item, in the same order as listed.
1. COc1ccc2nc(-c3ccccc3)cc(OCC(=O)O)c2c1
2. CCOC(=O)c1nnsc1N/N=C\c1ccc([N+](=O)[O-])cc1
3. COC(CN(C(C)=O)C1CCC2(SCCS2)c2[nH]c3ccccc3c21)OC (centres undefined)
4. O=C1c2ccccc2C(=O)c2cc(N=Nc3c(O)ccc4ccccc34)ccc21
5. CC(C)(C)c1cc(C(O)(C(F)(F)F)C(F)(F)F)c2c(c1)C(C(F)(F)F)(C(F)(F)F)OC(C)(C(C)(C)C)N2 (centres undefined)
6. CC(=O)OCC1OC(n2cc(F)c(=O)[nH]c2=O)C(NC(=O)OCc2ccccc2)C(OC(C)=O)C1OC(C)=O (centres undefined)
7. CCN(CC)CCCNc1ccc2nc(C)n3c4ccc(O)cc4c(=O)c1c23

Result:
["51.3 µM", "> 100 µM", "> 100 µM", "> 100 µM", "21 µM", "> 100 µM", "19.3 µM"]

Provide reported TGI for each item, in the same order as listed.
1. CC1=CC(=O)CC2(C)CC[C@@H]3C[C@]12OC3(C)C (some centres undefined)
2. NCCSSCCN
3. OCc1ccc(N2CCc3cccc(F)c3C2)cc1Cl

Result:
1. > 100 µM
2. > 100 µM
3. 46.6 µM

Provide reported TGI for each item, in the same order as listed.
1. COC(=O)/C=C(C)/C=C/C1OC(C)OCC1O (centres undefined)
2. Cc1nc(N)nc2c1CCC(O)S2 (centres undefined)
3. COc1cc2nc(SCc3cc(OC)c(OC)c(OC)c3)n(Cc3ccccc3)c(=O)c2cc1OC
4. COc1cc(F)c(F)c(Nc2ccc(I)cc2F)c1NS(=O)(=O)C1(C[C@H](O)CO)CC1
5. COc1ccc(-n2[nH]nc(C(N)=O)c2=O)cc1
6. O=C(OC1C2OC(=O)c3cc(O)c(O)c(O)c3Oc3cc4c(c(O)c3O)-c3c(cc(O)c(O)c3O)C(=O)OCC3OC(O)C(OC(=O)c5cc(O)c(O)c(O)c5Oc5cc6c(c(O)c5O)-c5c(cc(O)c(O)c5O)C(=O)OC1C(COC6=O)OC2O)C(OC(=O)c1cc(O)c(O)c(O)c1)C3OC4=O)c1cc(O)c(O)c(O)c1 (centres undefined)

Result:
> 100 µM
> 100 µM
> 100 µM
> 10 µM
> 100 µM
> 100 µM

Provide reported TGI for each item, in the same order as listed.
1. COc1ccc(C(c2c(O)c3ccccc3n(-c3ccccc3)c2=O)c2c(O)c3ccccc3n(-c3ccccc3)c2=O)cc1
2. O=C1/C(=C\c2cccc(Oc3ccccc3)c2)SC(c2ccccc2)N1c1ccccc1 (centres undefined)
3. NC(=S)/N=C(/c1nc2ccc(Cl)cc2[nH]c1=O)C(O)c1ccccc1Cl (centres undefined)
4. CC(C)(C)OC(=O)NC1CC2(C=C(Br)C(=O)C(Br)=C2)OC1=O (centres undefined)
5. Cc1c2ccncc2cc2c1[nH]c1ccccc12

Result:
1: > 100 µM; 2: > 100 µM; 3: > 100 µM; 4: 13.8 µM; 5: 9.89 µM

Provide reported TGI for each item, in the same order as listed.
1. S=c1snc2n1CCN2
2. CC1=Nc2c(ccc3c2C(=O)c2ccccc2C3=O)NC(c2cccc3c2CCC3)C1 (centres undefined)
3. C#Cc1cccc(N2C(=O)c3c(c(-c4ccccc4)c(-c4ccc(Cc5ccc(-c6c(-c7ccccc7)c7c(c(-c8ccccc8)c6-c6ccccc6)C(=O)N(c6cccc(C#C)c6)C7=O)cc5)cc4)c(-c4ccccc4)c3-c3ccccc3)C2=O)c1
4. O=C1/C(=C/c2cccc(Br)c2)COc2ccc(O)cc21
5. O=C1c2cc(Cl)ccc2NC(=NC2CCCC2)C2CSCN12 (centres undefined)
6. CC(C)CCC[C@@H](C)[C@H]1CC[C@H]2[C@@H]3CC[C@H]4C[C@@H](CCC=C(c5cc(Cl)c(O)c(C(=O)O)c5)c5cc(Cl)c(O)c(C(=O)O)c5)CC[C@]4(C)[C@H]3CC[C@]12C
7. CCCCCCCCCCCCCCCCCC1=NC(C)(C)CN1CC(C)O (centres undefined)

Result:
["> 100 µM", "> 100 µM", "> 100 µM", "3.46 µM", "> 100 µM", "> 100 µM", "29.4 µM"]

Provide reported TGI for each item, in the same order as listed.
1. Nc1nc(Cl)c(N)c(NCC2(CO)CC2)n1
2. CCP(=O)(CC)C(Cl)Cl
3. N#Cc1ccccc1C(Cl)(Cl)c1cnccn1
4. FC(F)(c1ccc2ncccc2c1)c1nnc2ccc(-c3ccncc3)nn12
5. O=C(NCCN1CCOCC1)c1cn2c(ccc3sc4ccccc4c(=O)c32)n1
6. COc1ccc(NC(=O)/C(=C/c2ccccc2)C(C)=O)cc1

Result:
1: > 100 µM; 2: > 100 µM; 3: > 100 µM; 4: > 100 µM; 5: > 100 µM; 6: 29 µM
